TARGET DESC: CDK1/CCNB1 (Homo sapiens)
Sequence (P06493 whole entry): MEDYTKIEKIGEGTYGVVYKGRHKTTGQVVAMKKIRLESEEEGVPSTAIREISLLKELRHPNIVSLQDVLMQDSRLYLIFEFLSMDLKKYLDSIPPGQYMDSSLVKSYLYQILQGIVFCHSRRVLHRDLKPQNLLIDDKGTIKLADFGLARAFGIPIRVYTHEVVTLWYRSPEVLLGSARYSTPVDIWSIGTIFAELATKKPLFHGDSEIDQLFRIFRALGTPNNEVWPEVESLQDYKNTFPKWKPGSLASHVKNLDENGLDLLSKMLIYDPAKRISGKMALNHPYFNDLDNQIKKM
Sequence (P14635 whole entry partner): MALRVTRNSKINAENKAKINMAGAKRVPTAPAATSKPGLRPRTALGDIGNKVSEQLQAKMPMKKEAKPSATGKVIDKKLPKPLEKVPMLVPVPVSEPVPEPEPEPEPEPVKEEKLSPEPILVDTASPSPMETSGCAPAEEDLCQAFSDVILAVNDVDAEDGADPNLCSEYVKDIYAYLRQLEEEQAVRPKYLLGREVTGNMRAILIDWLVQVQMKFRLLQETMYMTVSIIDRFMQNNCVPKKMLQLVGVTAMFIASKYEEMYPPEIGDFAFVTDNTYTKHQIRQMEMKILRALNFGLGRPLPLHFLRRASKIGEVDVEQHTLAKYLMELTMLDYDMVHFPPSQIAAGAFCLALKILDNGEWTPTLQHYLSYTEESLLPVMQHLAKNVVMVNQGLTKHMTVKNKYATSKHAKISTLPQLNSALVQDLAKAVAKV
ASSAY REMARKS: CDK1 homogeneous time-resolved fluorescence (HTRF) kinase assay
Type: biochemical
PARTICULARS: >250 nM; CDK1/CCNB; read-out: CDK1/CCNB IC50 >250 nM
MEASUREMENT TYPE: IC50

These recorded examples may help you get a feel for the data.
CCN(c1ncccn1)S(=O)(=O)c1ccc(Nc2cc3c(-c4ccc5c(cnn5CC(C)(C)O)c4C)nccc3cn2)cc1 : > 250 nM
Cc1c(-c2nccc3cnc(Nc4ccc(S(=O)(=O)NC5CCOCC5)cc4)cc23)ccc2c1cnn2CC(C)(C)O : > 250 nM
Cc1c(-c2nccc3cnc(Nc4ccc(S(=O)(=O)Nc5nc(C(F)(F)F)cc(C(F)(F)F)n5)cc4)cc23)ccc2c1cnn2CC(C)(C)O : > 250 nM
Cc1c(-c2nccc3cnc(Nc4ccc(S(=O)(=O)Nc5cc(C(C)(C)O)ccn5)cc4)cc23)ccc2c1cnn2CC(O)(C(F)(F)F)C(F)(F)F : > 250 nM
Cc1c(-c2nccc3cnc(Nc4ccc(S(=O)(=O)Nc5cc(N6CCOCC6)ccn5)cc4)cc23)ccc2c1cnn2CC(C)(C)O : > 250 nM

Please turn your attention to the following entry.
Data request: Need IC50, item Cc1c(-c2nccc3cnc(NC4CCN(C(=O)c5ccccc5)C4)cc23)ccc2c1cnn2CC(C)(C)O (racemic)
Data returned: > 250 nM

----------
TARGET DESC: CDK6/CCND1 (Homo sapiens)
ASSAY REMARKS: CDK6 homogeneous time-resolved fluorescence (HTRF) kinase assay
Format: biochemical
PARTICULARS: CDK6/CCND; x = IC50 >250 nM; read-out: CDK6/CCND IC50 (>250 nM column)
pIC50: −log10 of the molar value.
MEASUREMENT TYPE: pIC50

These recorded examples may help you get a feel for the data.
CC(C)S(=O)(=O)c1ccc(Nc2cc3c(C#Cc4ccc5c(c4)NC(=O)C54CC4)nccc3cn2)cc1 [Ex 393] : < 6.60
Cc1cc(C)nc(NS(=O)(=O)c2ccc(Nc3cc4c(C#Cc5cccnc5N)nccc4cn3)cc2)n1 [Example 471] : < 6.60
CCS(=N)(=O)c1ccc(Nc2cc3c(C#Cc4ccc5c(c4)NC(=O)C54CCC4)nccc3cn2)cc1 (single isomer, unassigned) [Ex 367] : < 6.60

Please turn your attention to the following entry.
Data request: pIC50 of Cn1nccc1C#Cc1nccc2cnc(Nc3ccc(S(C)(=O)=O)cc3)cc12 [Ex 637] on CDK6/CCND1 (Homo sapiens)?
Data returned: < 6.60

----------
TARGET DESC: CDK2/CCNE1 (Homo sapiens, UniProt P24941)
ASSAY REMARKS: CDK2 homogeneous time-resolved fluorescence (HTRF) kinase assay
Type: biochemical
PARTICULARS: CDK2/CCNE; x = IC50 25-250 nM; read-out: CDK2/CCNE IC50 (25-250 nM)
This listing pairs molecules with measured IC50.

These recorded examples may help you get a feel for the data.
CS(=O)(=O)c1ccc(Nc2cc3c(C#Cc4ccc5c(c4)OCC(=O)N5)nccc3cn2)cc1 : 0.025 to 0.25 µM
CS(=O)(=O)c1ccc(Nc2cc3c(C#Cc4cnc(N)nn4)nccc3cn2)cc1 : 0.025 to 0.25 µM

Please turn your attention to the following entry.
Data request: Need IC50, item N#Cc1ccc(C#Cc2nccc3cnc(Nc4ccc(S(=O)(=O)CCO)cc4)cc23)cc1
Data returned: 0.025 to 0.25 µM

----------
TARGET DESC: CDK2/CCNE1 (Homo sapiens, UniProt P24941)
ASSAY REMARKS: CDK2 homogeneous time-resolved fluorescence (HTRF) kinase assay
Type: biochemical
PARTICULARS: CDK2/CCNE; x = IC50 <25 nM; read-out: CDK2/CCNE IC50 (<25 nM)
pIC50: −log10 of the molar value.
MEASUREMENT TYPE: pIC50

These recorded examples may help you get a feel for the data.
CCC1(C)C(=O)Nc2cc(C#Cc3nccc4cnc(Nc5ccc(S(C)(=O)=O)cc5)cc34)ccc21 (racemic) [Example 390] : > 7.60
CNC(=O)Cn1ncc2c(C)c(-c3nccc4cnc(Nc5ccc(S(C)(=O)=O)cc5)cc34)ccc21 : > 7.60
O=C1Nc2cc(C#Cc3nccc4cnc(Nc5ccc(S(=O)(=O)C6CCC6)cc5)cc34)ccc2C12CCC2 : > 7.60
CS(=O)(=O)c1ccc(Nc2cc3c(C#Cc4ccncc4N)nccc3cn2)cc1 : > 7.60
Cc1cc2c(cc1C#Cc1nccc3cnc(Nc4ccc(S(=N)(=O)C(C)C)cc4)cc13)NC(=O)C2(C)C (single isomer, unassigned) : > 7.60

Data request: pIC50 of COC(=O)c1n[nH]c2cc(-c3nccc4cnc(Nc5ccc(S(C)(=O)=O)cc5)cc34)ccc12 on CDK2/CCNE1 (Homo sapiens, UniProt P24941)?
Data returned: > 7.60

Data request: Try this compound too: COc1cc(S(C)(=O)=O)ccc1Nc1cc2c(C#Cc3ccc4c(c3)NC(=O)C4(C)C)nccc2cn1
Data returned: > 7.60

Data request: Try this compound too: CCS(=O)(=O)c1ccc(Nc2cc3c(C#Cc4ccc5c(c4)NC(=O)C54CC4)nccc3cn2)c(C)c1
Data returned: > 7.60

----------
TARGET DESC: CDK6/CCND1 (Homo sapiens, UniProt Q00534)
Sequence (Q00534 whole entry): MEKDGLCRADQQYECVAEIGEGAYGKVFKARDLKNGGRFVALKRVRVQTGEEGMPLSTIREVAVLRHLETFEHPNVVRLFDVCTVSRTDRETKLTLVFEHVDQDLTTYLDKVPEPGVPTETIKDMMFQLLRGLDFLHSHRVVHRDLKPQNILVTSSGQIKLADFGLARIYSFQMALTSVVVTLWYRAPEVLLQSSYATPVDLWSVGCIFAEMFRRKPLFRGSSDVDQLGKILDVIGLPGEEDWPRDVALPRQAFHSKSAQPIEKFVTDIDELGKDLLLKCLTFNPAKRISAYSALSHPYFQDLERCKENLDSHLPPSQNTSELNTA
Sequence (P24385 whole entry partner): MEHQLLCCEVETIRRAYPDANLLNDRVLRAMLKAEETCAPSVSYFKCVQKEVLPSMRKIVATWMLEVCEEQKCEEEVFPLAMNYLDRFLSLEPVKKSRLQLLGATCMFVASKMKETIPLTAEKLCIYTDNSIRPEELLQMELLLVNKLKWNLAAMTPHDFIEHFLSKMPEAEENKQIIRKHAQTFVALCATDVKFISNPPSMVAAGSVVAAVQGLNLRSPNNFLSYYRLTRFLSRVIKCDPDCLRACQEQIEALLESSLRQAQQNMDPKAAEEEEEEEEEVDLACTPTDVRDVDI
ASSAY REMARKS: CDK6 homogeneous time-resolved fluorescence (HTRF) kinase assay
Type: biochemical
PARTICULARS: 1 nM CDK6/CCND1, 1 mM ATP; read-out: CDK6/CCND IC50 <25 nM
pIC50: −log10 of the molar value.
MEASUREMENT TYPE: pIC50

CS(=O)(=O)c1ccc(Nc2ncc3ccnc(C4=CCCCC4)c3n2)cc1 : > 7.60
CS(=O)(=O)c1ccc(Nc2ncc3ccc(C#N)c(N4CCC(C#N)CC4)c3n2)cc1 : > 7.60

Please turn your attention to the following entry.
Data request: pIC50 of CS(=O)(=O)c1ccc(Nc2ncc3ccnc(N4CCC(C#N)CC4)c3n2)cc1 on CDK6/CCND1 (Homo sapiens, UniProt Q00534)?
Data returned: > 7.60

----------
This listing pairs molecules with measured IC50.
TARGET DESC: CDK4/CCND3 (Homo sapiens, UniProt P11802)
Sequence (P11802 whole entry): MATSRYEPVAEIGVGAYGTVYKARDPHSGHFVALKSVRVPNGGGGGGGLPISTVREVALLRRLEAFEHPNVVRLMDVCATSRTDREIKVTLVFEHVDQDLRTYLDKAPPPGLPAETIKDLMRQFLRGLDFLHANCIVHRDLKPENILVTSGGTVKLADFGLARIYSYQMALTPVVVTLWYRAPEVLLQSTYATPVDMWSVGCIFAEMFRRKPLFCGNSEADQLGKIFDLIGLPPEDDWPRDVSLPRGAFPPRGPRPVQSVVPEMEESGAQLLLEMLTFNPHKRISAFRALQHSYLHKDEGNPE
Sequence (P30281 whole entry partner): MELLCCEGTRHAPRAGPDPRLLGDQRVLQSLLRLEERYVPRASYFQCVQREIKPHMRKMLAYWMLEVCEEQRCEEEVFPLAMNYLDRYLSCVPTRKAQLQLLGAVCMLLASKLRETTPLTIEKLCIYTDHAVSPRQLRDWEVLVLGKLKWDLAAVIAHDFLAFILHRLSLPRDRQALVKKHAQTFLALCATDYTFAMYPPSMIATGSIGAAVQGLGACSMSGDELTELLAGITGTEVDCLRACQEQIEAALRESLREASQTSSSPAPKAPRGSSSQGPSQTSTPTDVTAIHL
ASSAY REMARKS: CDK4 homogeneous time-resolved fluorescence (HTRF) kinase assay
Assay type: biochemical
PARTICULARS: CDK4/CCND; x = IC50 25-250 nM; read-out: CDK4/CCND IC50 (25-250 nM)
Experimental: A CDK homogeneous time-resolved fluorescence (HTRF) assay was used to assess the potency of the compounds described herein. To an untreated 384-well microtiter plate (ProxiPlate) was added 100 nL 100×test compound in DMSO and 5 μL 2×CDK enzyme in assay buffer (50 mM HEPES, 1 mM EGTA, 10 mM MgCl2, 0.01% Tween 20, 2 mM DTT). […] Fluorescence was read at 340 nm excitation and 665 nm emission on an EnVision 2105 fluorescence reader. […] Using this assay, the IC50 values of example compounds were determined. […]

These recorded examples may help you get a feel for the data.
CCS(=N)(=O)c1ccc(Nc2cc3c(C#Cc4ccc5oc(=O)[nH]c5c4)nccc3cn2)cc1 (racemic) : 25 to 250 nM
N=S(=O)(c1ccc(Nc2cc3c(C#Cc4ccc5c(c4)NC(=O)C54CCC4)nccc3cn2)cc1)C1CC1 (single isomer, unassigned) : 25 to 250 nM

Please turn your attention to the following entry.
Data request: Need IC50, item N=S(=O)(c1ccc(Nc2cc3c(C#Cc4ccc5c(c4)NC(=O)C54CC4)nccc3cn2)cc1)C1CCC1 (single isomer, unassigned)
Data returned: 25 to 250 nM

----------
TARGET DESC: CDK4/CCND3 (Homo sapiens, UniProt P11802)
ASSAY REMARKS: CDK4 homogeneous time-resolved fluorescence (HTRF) kinase assay
Format: biochemical
PARTICULARS: <25 nM; CDK4/CCND; read-out: CDK4/CCND IC50, column <25 nM
pIC50: −log10 of the molar value.
MEASUREMENT TYPE: pIC50

Data request: Need pIC50, item Cc1c(-c2nccc3cnc(Nc4ccc(S(=O)(=O)NC5CCNC5)cc4)cc23)ccc2c1cnn2CC(C)(C)O (racemic) [Ex 791]
Data returned: > 7.60

----------
This listing pairs compounds with measured IC50.
TARGET DESC: CDK2/CCNE1 (Homo sapiens)
ASSAY REMARKS: CDK2 homogeneous time-resolved fluorescence (HTRF) kinase assay
Type: biochemical
PARTICULARS: >250 nM; CDK2/CCNE; read-out: CDK2/CCNE IC50, >250 nM

These recorded examples may help you get a feel for the data.
CCOC(=O)c1cn2cc(C#Cc3nccc4cnc(Nc5ccc(S(C)(=O)=O)cc5)cc34)ccc2n1 : > 250 nM
CS(=O)(=O)c1ccc(Nc2cc3c(C#Cc4cc(F)c(F)c(F)c4)nccc3cn2)cc1 : > 250 nM
Cc1c(-c2nccc3cnc(Nc4ccc(S(=O)(=O)N(c5ncccn5)C5CC5)cc4)cc23)ccc2c1cnn2CC(O)(C(F)(F)F)C(F)(F)F : > 250 nM
COc1cc(C#Cc2nccc3cnc(Nc4ccc(S(C)(=O)=O)cc4)cc23)ccc1F : > 250 nM
CS(=O)(=O)c1ccc(Nc2cc3c(C#Cc4cc(F)c5cn[nH]c5c4)nccc3cn2)cc1 : > 250 nM

Data request: Need IC50, item Cc1nn(-c2ccccc2)c(C)c1S(=O)(=O)Nc1ccc(Nc2cc3c(-c4ccc5c(cnn5CC(C)(C)O)c4C)nccc3cn2)cc1
Data returned: > 250 nM

Data request: Try this compound too: CN1CCN(S(=O)(=O)c2ccc(Nc3cc4c(C#Cc5ccc(C#N)cc5)nccc4cn3)cc2)CC1
Data returned: > 250 nM

Data request: Try this compound too: CS(=O)(=O)c1ccc(Nc2cc3c(C#Cc4cccnc4O)nccc3cn2)cc1
Data returned: > 250 nM

Data request: Try this compound too: Cc1c(-c2nccc3cnc(Nc4ccc(S(=O)(=O)Nc5cc(C(F)(F)F)ccn5)cc4)cc23)ccc2c1cnn2CC(O)(C(F)(F)F)C(F)(F)F
Data returned: > 250 nM

Data request: Try this compound too: Cc1nc(-c2ccc(S(=O)(=O)Nc3ccc(Nc4cc5c(-c6ccc7c(cnn7CC(C)(C)O)c6C)nccc5cn4)cc3)s2)cs1
Data returned: > 250 nM

Data request: Try this compound too: CS(=O)(=O)c1ccc(Nc2cc3c(C#Cc4ccc(C(F)(F)F)nc4)nccc3cn2)cc1
Data returned: > 250 nM

Data request: Try this compound too: Cc1ccccc1NS(=O)(=O)c1ccc(Nc2cc3c(-c4ccc5c(cnn5CC(O)(C(F)(F)F)C(F)(F)F)c4C)nccc3cn2)cc1
Data returned: > 250 nM

Data request: Try this compound too: C[C@@H]1CN(C)CCN1c1cc(Nc2cc3c(C#Cc4ccc(=O)[nH]n4)nccc3cn2)cnc1O
Data returned: > 250 nM

The reported measurements were obtained from patent US20260325533A1.
